B1: Storkhead-box protein 2, residues 64 to 141; numbered along this chain, Q9P2F5 (parent)
chain: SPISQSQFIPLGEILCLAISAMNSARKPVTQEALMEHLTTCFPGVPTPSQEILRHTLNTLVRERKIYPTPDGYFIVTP

- Variants of: B1
- test.summary: abundance fitness (aPCA) (normalised: wild type 0, dead -1); higher = more abundant; growth selection in yeast, the domain comes from the species named
- condition.description: Homo sapiens
Label rule, in plain words: abundance fitness of -0.3 and up is rule met, under -0.3 is rule not met.

[
  {
    "mutant.designation": "V45Q",
    "assigned.label": "rule met"
  },
  {
    "mutant.designation": "L34H",
    "assigned.label": "rule not met"
  },
  {
    "mutant.designation": "P43G",
    "assigned.label": "rule met"
  },
  {
    "mutant.designation": "T77W",
    "assigned.label": "rule met"
  },
  {
    "mutant.designation": "P48G",
    "assigned.label": "rule not met"
  },
  {
    "mutant.designation": "K27I",
    "assigned.label": "rule met"
  },
  {
    "mutant.designation": "P48A",
    "assigned.label": "rule met"
  },
  {
    "mutant.designation": "M22V",
    "assigned.label": "rule not met"
  },
  {
    "mutant.designation": "D71P",
    "assigned.label": "rule met"
  },
  {
    "mutant.designation": "A33G",
    "assigned.label": "rule met"
  },
  {
    "mutant.designation": "G72C",
    "assigned.label": "rule not met"
  }
]
